System: Staphylococcus aureus V41
MEASUREMENT PROTOCOL: MIC, standard agar-dilution assay
Type: cell-based
ENDPOINT LABEL: MIC

Below: 4 compounds and their reported MIC.
[[record]]
compound = "CN[C@H](CC(C)C)C(=O)N[C@H]1C(=O)N[C@@H](CC(N)=O)C(=O)N[C@H]2C(=O)N[C@H]3C(=O)N[C@H](C(=O)N[C@H](C(=O)O)c4cc(O)cc(O)c4-c4cc3ccc4O)[C@H](O[C@H]3C[C@](C)(N)[C@@H](O)[C@H](C)O3)c3ccc(c(Cl)c3)Oc3cc2cc(c3O[C@@H]2O[C@H](CO)[C@@H](O)[C@H](O)[C@H]2O[C@H]2C[C@](C)(NCCc3ccccc3)[C@@H](O)[C@H](C)O2)Oc2ccc(cc2Cl)[C@H]1O [Compound 43]"
tested_target = "Staphylococcus aureus V41"
result = ".5 µg/mL"

[[record]]
compound = "CCCCCN(C)[C@H](CC(C)C)C(=O)N[C@H]1C(=O)N[C@@H](CC(N)=O)C(=O)N[C@H]2C(=O)N[C@H]3C(=O)N[C@H](C(=O)N[C@H](C(=O)O)c4cc(O)cc(O)c4-c4cc3ccc4O)[C@H](O[C@H]3C[C@](C)(N)[C@@H](O)[C@H](C)O3)c3ccc(cc3)Oc3cc2cc(c3O[C@@H]2O[C@H](CO)[C@@H](O)[C@H](O)[C@H]2O[C@H]2C[C@](C)(N)[C@@H](O)[C@H](C)O2)Oc2ccc(cc2Cl)[C@H]1O [Compound 6]"
tested_target = "Staphylococcus aureus V41"
result = ".25 µg/mL"

[[record]]
compound = "CCCCCCCCc1ccc(CNC2(C)CC(OC3C(Oc4c5cc6cc4Oc4ccc(cc4Cl)C(OC4CC(C)(N)C(O)C(C)O4)C4NC(=O)C(NC(=O)C6NC(=O)C(CC(N)=O)NC(=O)C(NC(=O)C(CC(C)C)NC)C(O)c6ccc(c(Cl)c6)O5)c5ccc(O)c(c5)-c5c(O)cc(O)cc5C(C(=O)O)NC4=O)OC(CO)C(O)C3O)OC(C)C2O)cc1 (stereo not drawn) [Compound 54]"
tested_target = "Staphylococcus aureus V41"
result = "64 µg/mL"

[[record]]
compound = "CNC(CC(C)C)C(=O)NC1C(=O)NC(CC(N)=O)C(=O)NC2C(=O)NC3C(=O)NC(C(=O)NC(C(=O)O)c4cc(O)cc(O)c4-c4cc3ccc4O)C(OC3CC(C)(NCc4ccc(F)cc4)C(O)C(C)O3)c3ccc(c(Cl)c3)Oc3cc2cc(c3OC2OC(CO)C(O)C(O)C2OC2CC(C)(N)C(O)C(C)O2)Oc2ccc(cc2Cl)C1O (stereo not drawn) [Compound 66]"
tested_target = "Staphylococcus aureus V41"
result = "1 µg/mL"


Asked: Specify reported MIC for the compound shown: CNC(CC(C)C)C(=O)NC1C(=O)NC(CC(N)=O)C(=O)NC2C(=O)NC3C(=O)NC(C(=O)NC(C(=O)O)c4cc(O)cc(O)c4-c4cc3ccc4O)C(OC3CC(C)(N)C(O)C(C)O3)c3ccc(c(Cl)c3)Oc3cc2cc(c3OC2OC(CO)C(O)C(O)C2OC2CC(C)(NCc3ccc(Br)cc3)C(O)C(C)O2)Oc2ccc(cc2Cl)C1O (stereo not drawn) [Compound 58]
Given back: .5 µg/mL

Asked: Specify reported MIC for the compound shown: CCN(CC)c1ccc(CNC2(C)CC(OC3C(Oc4c5cc6cc4Oc4ccc(cc4Cl)C(OC4CC(C)(N)C(O)C(C)O4)C4NC(=O)C(NC(=O)C6NC(=O)C(CC(N)=O)NC(=O)C(NC(=O)C(CC(C)C)NC)C(O)c6ccc(c(Cl)c6)O5)c5ccc(O)c(c5)-c5c(O)cc(O)cc5C(C(=O)O)NC4=O)OC(CO)C(O)C3O)OC(C)C2O)cc1 (stereo not drawn) [Compound 56]
Given back: .5 µg/mL

----------
Here the recorded MIC is given for each entry.
Tested on: Klebsiella pneumoniae X68
MEASUREMENT PROTOCOL: MIC, standard agar-dilution assay
Format: cell-based

Below: 2 compounds and their reported MIC.
[[record]]
compound = "CCN(CC)c1ccc(CN[C@@]2(C)C[C@H](O[C@H]3[C@H](Oc4c5cc6cc4Oc4ccc(cc4Cl)[C@@H](O)[C@@H](NC(=O)[C@@H](CC(C)C)NC)C(=O)N[C@@H](CC(N)=O)C(=O)N[C@H]6C(=O)N[C@H]4C(=O)N[C@H](C(=O)N[C@H](C(=O)O)c6cc(O)cc(O)c6-c6cc4ccc6O)[C@H](O[C@H]4C[C@](C)(N)[C@@H](O)[C@H](C)O4)c4ccc(cc4)O5)O[C@H](CO)[C@@H](O)[C@@H]3O)O[C@@H](C)[C@@H]2O)cc1"
result = "> 128 µg/mL"

[[record]]
compound = "CNC(CC(C)C)C(=O)NC1C(=O)NC(CC(N)=O)C(=O)NC2C(=O)NC3C(=O)NC(C(=O)NC(C(=O)O)c4cc(O)cc(O)c4-c4cc3ccc4O)C(OC3CC(C)(NCc4ccccc4)C(O)C(C)O3)c3ccc(cc3)Oc3cc2cc(c3O)Oc2ccc(cc2Cl)C1O (stereo not drawn)"
result = "> 128 µg/mL"


Next compound, MIC to be filled in.
Asked: Specify reported MIC for the compound shown: CNC(CC(C)C)C(=O)NC1C(=O)NC(CC(N)=O)C(=O)NC2C(=O)NC3C(=O)NC(C(=O)NC(C(=O)O)c4cc(O)cc(O)c4-c4cc3ccc4O)C(OC3CC(C)(N)C(O)C(C)O3)c3ccc(c(Cl)c3)Oc3cc2cc(c3OC2OC(CO)C(O)C(O)C2OC2CC(C)(NCc3cccc(Cl)c3)C(O)C(C)O2)Oc2ccc(cc2Cl)C1O (stereo not drawn)
Given back: > 128 µg/mL

----------
Tested on: vancomycin-susceptible (Vanco^s) E. faecium and E. faecalis
MEASUREMENT PROTOCOL: Susceptibility of vancomycin-susceptible enterococci, agar-dilution MIC
Assay type: cell-based
CONDITION CONTEXT: n = 34 strains; end points read after 24-hour incubation
ENDPOINT LABEL: Geometric Mean MIC, Vanco^s Strains (µg/mL)
Enter your answer as a number in µg/mL; do not include the unit.

[[record]]
compound = "CN[C@H](CC(C)C)C(=O)N[C@H]1C(=O)N[C@@H](CC(N)=O)C(=O)N[C@H]2C(=O)N[C@H]3C(=O)N[C@H](C(=O)N[C@H](C(=O)O)c4cc(O)cc(O)c4-c4cc3ccc4O)[C@H](O[C@H]3C[C@](C)(N)[C@@H](O)[C@H](C)O3)c3ccc(c(Cl)c3)Oc3cc2cc(c3O[C@@H]2O[C@H](CO)[C@@H](O)[C@H](O)[C@H]2O[C@H]2C[C@](C)(NCCc3ccccc3)[C@@H](O)[C@H](C)O2)Oc2ccc(cc2Cl)[C@H]1O"
endpoint_label = "Geometric Mean MIC, Vanco^s Strains"
unit = "µg/mL"
numeric_result = 0.77


Asked: Specify reported Geometric Mean MIC, Vanco^s Strains for the compound shown: `CCCCCCCCN[C@@]1(C)C[C@H](O[C@H]2[C@H](Oc3c4cc5cc3Oc3ccc(cc3Cl)[C@@H](O)[C@@H](NC(=O)[C@@H](CC(C)C)NC)C(=O)N[C@@H](CC(N)=O)C(=O)N[C@H]5C(=O)N[C@H]3C(=O)N[C@H](C(=O)N[C@H](C(=O)O)c5cc(O)cc(O)c5-c5cc3ccc5O)[C@H](O[C@H]3C[C@](C)(N)[C@@H](O)[C@H](C)O3)c3ccc(cc3)O4)O[C@H](CO)[C@@H](O)[C@@H]2O)O[C@@H](C)[C@@H]1O`
Given back: 2.2

Asked: Specify reported Geometric Mean MIC, Vanco^s Strains for the compound shown: CNC(CC(C)C)C(=O)NC1C(=O)NC(CC(N)=O)C(=O)NC2C(=O)NC3C(=O)NC(C(=O)NC(C(=O)O)c4cc(O)cc(O)c4-c4cc3ccc4O)C(OC3CC(C)(N)C(O)C(C)O3)c3ccc(c(Cl)c3)Oc3cc2cc(c3OC2OC(CO)C(O)C(O)C2OC2CC(C)(NCc3ccc(Cl)cc3)C(O)C(C)O2)Oc2ccc(cc2Cl)C1O (stereo not shown)
Given back: 0.65

Asked: Specify reported Geometric Mean MIC, Vanco^s Strains for the compound shown: `CCCCCCCCCCN[C@@]1(C)C[C@H](O[C@H]2[C@H](Oc3c4cc5cc3Oc3ccc(cc3Cl)[C@@H](O[C@H]3C[C@](C)(N)[C@@H](O)[C@H](C)O3)[C@@H]3NC(=O)[C@H](NC(=O)[C@@H]5NC(=O)[C@H](CC(N)=O)NC(=O)[C@H](NC(=O)[C@@H](CC(C)C)NC)[C@H](O)c5ccc(c(Cl)c5)O4)c4ccc(O)c(c4)-c4c(O)cc(O)cc4[C@@H](C(=O)O)NC3=O)O[C@H](CO)[C@@H](O)[C@@H]2O)O[C@@H](C)[C@@H]1O`
Given back: 0.92

----------
Test system: Streptococcus pyogenes C203
MEASUREMENT PROTOCOL: MIC, standard agar-dilution assay
Format: cell-based
ENDPOINT LABEL: MIC

[[record]]
compound = "CCCCCNC1(C)CC(OC2c3ccc(c(Cl)c3)Oc3cc4cc(c3OC3OC(CO)C(O)C(O)C3O)Oc3ccc(cc3Cl)C(O)C(NC(=O)C(CC(C)C)NC)C(=O)NC(CC(N)=O)C(=O)NC4C(=O)NC3C(=O)NC2C(=O)NC(C(=O)O)c2cc(O)cc(O)c2-c2cc3ccc2O)OC(C)C1O (stereo not drawn) [Compound 77]"
tested_target = "Streptococcus pyogenes C203"
result = ".25 µg/mL"

[[record]]
compound = "CN[C@H](CC(C)C)C(=O)N[C@H]1C(=O)N[C@@H](CC(N)=O)C(=O)N[C@H]2C(=O)N[C@H]3C(=O)N[C@H](C(=O)N[C@H](C(=O)O)c4cc(O)cc(O)c4-c4cc3ccc4O)[C@H](O[C@H]3C[C@](C)(N)[C@@H](O)[C@H](C)O3)c3ccc(c(Cl)c3)Oc3cc2cc(c3O[C@@H]2O[C@H](CO)[C@@H](O)[C@H](O)[C@H]2O[C@H]2C[C@](C)(NCCc3ccccc3)[C@@H](O)[C@H](C)O2)Oc2ccc(cc2Cl)[C@H]1O [Compound 43]"
tested_target = "Streptococcus pyogenes C203"
result = ".5 µg/mL"

[[record]]
compound = "CCCCCCCCCCN[C@@]1(C)C[C@H](O[C@H]2[C@H](Oc3c4cc5cc3Oc3ccc(cc3Cl)[C@@H](O[C@H]3C[C@](C)(N)[C@@H](O)[C@H](C)O3)[C@@H]3NC(=O)[C@H](NC(=O)[C@@H]5NC(=O)[C@H](CC(N)=O)NC(=O)[C@H](NC(=O)[C@@H](CC(C)C)NC)[C@H](O)c5ccc(c(Cl)c5)O4)c4ccc(O)c(c4)-c4c(O)cc(O)cc4[C@@H](C(=O)O)NC3=O)O[C@H](CO)[C@@H](O)[C@@H]2O)O[C@@H](C)[C@@H]1O [Compound 42]"
tested_target = "Streptococcus pyogenes C203"
result = ".25 µg/mL"


Asked: Specify reported MIC for the compound shown: CCCCCCCCc1ccc(CNC2(C)CC(OC3C(Oc4c5cc6cc4Oc4ccc(cc4Cl)C(OC4CC(C)(N)C(O)C(C)O4)C4NC(=O)C(NC(=O)C6NC(=O)C(CC(N)=O)NC(=O)C(NC(=O)C(CC(C)C)NC)C(O)c6ccc(c(Cl)c6)O5)c5ccc(O)c(c5)-c5c(O)cc(O)cc5C(C(=O)O)NC4=O)OC(CO)C(O)C3O)OC(C)C2O)cc1 (stereo not drawn) [Compound 54]
Given back: 8 µg/mL

Asked: Specify reported MIC for the compound shown: CNC(CC(C)C)C(=O)NC1C(=O)NC(CC(N)=O)C(=O)NC2C(=O)NC3C(=O)NC(C(=O)NC(C(=O)O)c4cc(O)cc(O)c4-c4cc3ccc4O)C(OC3CC(C)(NCc4ccccc4)C(O)C(C)O3)c3ccc(cc3)Oc3cc2cc(c3O)Oc2ccc(cc2Cl)C1O (stereo not drawn) [Compound 73]
Given back: 1 µg/mL

Asked: Specify reported MIC for the compound shown: CNC(CC(C)C)C(=O)NC1C(=O)NC(CC(N)=O)C(=O)NC2C(=O)NC3C(=O)NC(C(=O)NC(C(=O)O)c4cc(O)cc(O)c4-c4cc3ccc4O)C(OC3CC(C)(N)C(O)C(C)O3)c3ccc(c(Cl)c3)Oc3cc2cc(c3OC2OC(CO)C(O)C(O)C2OC2CC(C)(NCc3ccccc3Cl)C(O)C(C)O2)Oc2ccc(cc2Cl)C1O (stereo not drawn) [Compound 62]
Given back: .125 µg/mL
